// IC50 lookup, one value per entry
- EXPERIMENT_SUMMARY: Antiproliferative activity against human STO cells after 72 hrs
- Format: functional, cell-based
Report the value in µM with no unit label.

Here are 2 molecules together with their reported answers.
{"MOLECULE": "CCC(C)CCCCCCC(=O)/C=C(\\O)C1=C2C=C(CC(O)CO)/C(=C/NCc3ccccc3)C(=O)[C@]2(C)OC1=O (stereo partly drawn)", "IC50, µM": 4}
{"MOLECULE": "CCCCCCCCCC[C@H](C)C(=O)C1=C2C3=CN(Cc4ccccc4)C(C)=CC3=CC(=O)[C@]2(C)OC1=O", "IC50, µM": 4.5}

Now take the following molecule into account.
Data request, read-out IC50, for CCC(C)CCCCCC/C(=C/C(=O)C1=C2C=C(CC(O)CO)/C(=C/NCc3ccccc3)C(=O)[C@]2(C)OC1=O)NCc1ccccc1 (stereo partly drawn)
4.36

* * *

- EXPERIMENT_SUMMARY: Antiproliferative activity against human JR8 cells after 72 hrs
- Type: functional, cell-based
- TEST_SETTINGS: JR8, 72 h
Reported IC50 values are given for each entry in this list.
# output: bare number, implied unit µM

{"MOLECULE": "CCC(C)/C=C/C=C/C=C/C(=O)/C=C(\\O)C1=C2C=C(CC(O)CO)/C(=C/NCCN3CCOCC3)C(=O)[C@]2(C)OC1=O (some centres undefined)", "IC50 / µM": 8.59}
{"MOLECULE": "CCCCCCCCCC(=O)C1=C2C3=COC(C)=CC3=CC(=O)[C@]2(C)OC1=O", "IC50 / µM": 26}
{"MOLECULE": "CCC(C)/C=C/C=C/C=C/C(=O)/C=C(\\O)C1=C2C=C(CC(O)CO)/C(=C/NCCCO)C(=O)[C@]2(C)OC1=O (some centres undefined)", "IC50 / µM": 6}

// moving on: another record for IC50
So what's the measured IC50 for this one? C/C=C/C1=CC2=CC3=C(C(=O)CCCCCCC)C(=O)O[C@@]3(C)C(=O)C2=CN1Cc1ccccc1
4

* * *

# pIC50 per entry
- EXPERIMENT_SUMMARY: Binding affinity to HSP90 after 4 hrs by fluorescence polarization assay
// pIC50 is dimensionless: -log10 of concentration (M)

Here are 10 compounds together with their reported answers.
{"COMPOUND": "CCC(C)/C=C/C=C/C=C/C(=O)/C=C(\\O)C1=C2C=C(CC(O)CO)/C(=C/NCCCCC(NC(C)=O)C(=O)O)C(=O)[C@]2(C)OC1=O (some centres not stated)", "MEASUREMENT_KIND": "pIC50", "ASSAY_RESULT": 5.17}
{"COMPOUND": "C/C=C/C1=CC2=CC3=C(C(=O)CCCCC)C(=O)O[C@@]3(C)C(=O)C2=CO1 [RUBROPUNCTATIN]", "MEASUREMENT_KIND": "pIC50", "ASSAY_RESULT": 7.40}
{"COMPOUND": "CCC(C)/C=C/C=C/C=C/C(=O)/C=C(\\O)C1=C2C=C3C=CN(Cc4ccccc4)C=C3C(=O)[C@]2(C)OC1=O (some centres not stated)", "MEASUREMENT_KIND": "pIC50", "ASSAY_RESULT": 6.55}
{"COMPOUND": "CCC(C)/C=C/C=C/C=C/C(=O)/C=C(\\O)C1=C2C=C(CC(O)CO)/C(=C/NCc3ccccc3)C(=O)[C@]2(C)OC1=O (some centres not stated)", "MEASUREMENT_KIND": "pIC50", "ASSAY_RESULT": 4.56}
{"COMPOUND": "CCC(C)/C=C/C=C/C=C/C(=O)/C=C(\\O)C1=C2C=C(CC(O)CO)/C(=C/NCCCO)C(=O)[C@]2(C)OC1=O (some centres not stated)", "MEASUREMENT_KIND": "pIC50", "ASSAY_RESULT": 5.64}
{"COMPOUND": "CCC(C)CCCCCCC(=O)/C=C(\\O)C1=C2C=C(CC(O)CO)/C(=C/NCc3ccccc3)C(=O)[C@]2(C)OC1=O (some centres not stated)", "MEASUREMENT_KIND": "pIC50", "ASSAY_RESULT": 4.43}
{"COMPOUND": "C/C=C/C1=CC2=CC3=C(C(=O)CCCCCCC)C(=O)O[C@@]3(C)C(=O)C2=CN1Cc1ccccc1", "MEASUREMENT_KIND": "pIC50", "ASSAY_RESULT": 8.40}
{"COMPOUND": "C/C=C/C1=CC2=CC3=C(C(=O)CCCCCCC)C(=O)O[C@@]3(C)C(=O)C2=CO1 [MONASCORUBRIN]", "MEASUREMENT_KIND": "pIC50", "ASSAY_RESULT": 6.57}
{"COMPOUND": "CCC(C)/C=C/C=C/C=C/C(=O)/C=C(\\O)C1=C2C=C3CC(CO)OC=C3C(=O)[C@]2(C)OC1=O (some centres not stated) [BULGARIALACTONE B]", "MEASUREMENT_KIND": "pIC50", "ASSAY_RESULT": 4.21}
{"COMPOUND": "CCC(C)/C=C/C=C/C=C/C(=O)/C=C(\\O)C1=C2C=C(CC(O)CO)/C(=C/NCCN3CCOCC3)C(=O)[C@]2(C)OC1=O (some centres not stated)", "MEASUREMENT_KIND": "pIC50", "ASSAY_RESULT": 4.56}

Please report the recorded pIC50 for CCC(C)CCCCCC/C(=C/C(=O)C1=C2C=C(CC(O)CO)/C(=C/NCc3ccccc3)C(=O)[C@]2(C)OC1=O)NCc1ccccc1 (some centres not stated) .
4.45

Entry under review: CCC(C)CCCCCCC(=O)/C=C(\O)C1=C2C=C3CC(CO)OC=C3C(=O)[C@]2(C)OC1=O (some centres not stated) . Reported pIC50?
4.45

* * *

- EXPERIMENTAL_SYSTEM: Heat shock protein HSP90 (Homo sapiens, UniProt P07900+P08238)
- EXPERIMENT_SUMMARY: Inhibition of HSP90 in human JR8 cells assessed as down-regulation of Cdk4 protein at IC80 concentration after 24 hrs by immunoblotting
- Format: cell-based
Activity calls are given as the source filed them. No cut-off for these calls is given here.
MEASUREMENT_KIND: inhibition

Some compounds with known inhibition results, for comparison:
{"COMPOUND": "CCC(C)/C=C/C=C/C=C/C(=O)/C=C(\\O)C1=C2C=C3CC(CO)OC=C3C(=O)[C@]2(C)OC1=O (stereo not given in full)", "inhibition": "Active"}
{"COMPOUND": "CCC(C)CCCCCC/C(=C/C(=O)C1=C2C=C(CC(O)CO)/C(=C/NCc3ccccc3)C(=O)[C@]2(C)OC1=O)NCc1ccccc1 (stereo not given in full)", "inhibition": "Active"}
{"COMPOUND": "CCC(C)/C=C/C=C/C=C/C(=O)/C=C(\\O)C1=C2C=C(CC(O)CO)/C(=C/NCCN3CCOCC3)C(=O)[C@]2(C)OC1=O (stereo not given in full)", "inhibition": "Active"}
{"COMPOUND": "CCC(C)/C=C/C=C/C=C/C(=O)/C=C(\\O)C1=C2C=C(CC(O)CO)/C(=C/NCc3ccccc3)C(=O)[C@]2(C)OC1=O (stereo not given in full)", "inhibition": "Active"}

Consider now this further compound.
Fill blank: measured inhibition of the compound C/C=C/C1=CC2=CC3=C(C(=O)CCCCCCC)C(=O)O[C@@]3(C)C(=O)C2=CN1Cc1ccccc1 is ____.
Active

* * *

- Tested on: A-431
- EXPERIMENT_SUMMARY: Antiproliferative activity against human A431 cells after 72 hrs
- Assay type: functional, cell-based
- TEST_SETTINGS: A-431, 72 h
MEASUREMENT_KIND: IC80 (µM)
Your answer is read as µM, so omit the unit and give the number.

Example cases with answers are listed next.
{"COMPOUND": "CCC(C)/C=C/C=C/C=C/C(=O)/C=C(\\O)C1=C2C=C3CC(CO)OC=C3C(=O)[C@]2(C)OC1=O (some centres undefined)", "EXPERIMENTAL_SYSTEM": "A-431", "ASSAY_RESULT": 11}
{"COMPOUND": "CCC(C)/C=C/C=C/C=C/C(=O)/C=C(\\O)C1=C2C=C(CC(O)CO)/C(=C/NCCN3CCOCC3)C(=O)[C@]2(C)OC1=O (some centres undefined)", "EXPERIMENTAL_SYSTEM": "A-431", "ASSAY_RESULT": 8.6}
{"COMPOUND": "C=CCNC1=C2C[C@@H](C)C[C@H](OC)[C@H](O)[C@@H](C)/C=C(\\C)[C@H](OC(N)=O)[C@@H](OC)/C=C\\C=C(/C)C(=O)NC(=CC1=O)C2=O", "EXPERIMENTAL_SYSTEM": "A-431", "ASSAY_RESULT": 0.1}

Can you look up IC80 on A-431 for CCC(C)/C=C/C=C/C=C/C(=O)/C=C(\O)C1=C2C=C(CC(O)CO)/C(=C/NCc3ccccc3)C(=O)[C@]2(C)OC1=O (some centres undefined) ?
2.7
